Quick record: pKi, Kappa-type opioid receptor (Homo sapiens, UniProt P41145).
pKi: −log10 of the molar value. Where a SMILES comes first, the peptide text is derived from it. [ ]: non-standard residue; d: D form.

COMPOUND | pKi
CC(=O)N[C@H](Cc1c[nH]c2ccccc12)C(=O)N[C@@H](Cc1ccccc1)C(N)=O (Ac-[dW]-Phe-NH2) | < 4.00
NC(=O)[C@H]1CC(=O)NCCC(=O)N[C@H](Cc2c[nH]c3ccccc23)C(=O)N[C@@H](Cc2ccccc2)C(=O)N1 | < 4.00
CC(=O)N[C@H](Cc1cnc[nH]1)C(=O)N[C@@H](Cc1ccccc1)C(=O)NCC(N)=O | < 4.00

====

TARGET: Delta-type opioid receptor (Homo sapiens)
Sequence (P41143 whole entry): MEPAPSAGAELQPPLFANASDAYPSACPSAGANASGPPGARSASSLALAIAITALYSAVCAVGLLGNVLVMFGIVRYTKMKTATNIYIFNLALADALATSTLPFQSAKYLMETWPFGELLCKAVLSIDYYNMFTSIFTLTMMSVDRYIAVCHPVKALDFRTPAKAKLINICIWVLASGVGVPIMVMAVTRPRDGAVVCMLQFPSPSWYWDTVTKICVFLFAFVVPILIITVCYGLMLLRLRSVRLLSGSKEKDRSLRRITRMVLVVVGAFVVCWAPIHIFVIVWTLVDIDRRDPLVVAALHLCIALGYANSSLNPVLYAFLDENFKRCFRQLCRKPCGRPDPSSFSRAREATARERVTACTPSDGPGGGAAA
TEST SUMMARY: Displacement of [3H]diprenorphine from human DOR expressed in HEK293 cells after 90 mins by liquid scintillation counting
pKi: −log10 of the molar value. Where a SMILES comes first, the peptide text is derived from it. [ ]: non-standard residue; d: D form.
# Lookup of reported pKi keyed by entry
QUANTITY MEASURED: pKi

COMPOUND | OBSERVED
CC(=O)N[C@H](Cc1c[nH]c2ccccc12)C(=O)N[C@@H](Cc1ccccc1)C(=O)NCC(N)=O (Ac-[dW]-Phe-Gly-NH2) | < 4.00
CC(=O)N[C@H](CCCNC(=N)N)C(=O)N[C@@H](Cc1ccccc1)C(N)=O | < 4.00
CC(=O)N[C@H](CCCCN)C(=O)N[C@@H](Cc1ccccc1)C(=O)NCC(N)=O | < 4.00
CC(=O)N[C@H](CCCNC(=N)N)C(=O)N[C@@H](Cc1ccccc1)C(=O)NCC(N)=O | < 4.00
CC(=O)N[C@H](Cc1c[nH]c2ccccc12)C(=O)N[C@@H](Cc1ccccc1)C(N)=O (Ac-[dW]-Phe-NH2) | 7.62
CC(=O)N[C@H](Cc1cnc[nH]1)C(=O)N[C@@H](Cc1ccccc1)C(N)=O | < 4.00
NC(=O)[C@H]1CC(=O)NCCC(=O)N[C@H](Cc2c[nH]c3ccccc23)C(=O)N[C@@H](Cc2ccccc2)C(=O)N1 | < 4.00
CC(=O)N[C@H](CCCCN)C(=O)N[C@@H](Cc1ccccc1)C(N)=O | < 4.00
CC(=O)N[C@H](Cc1cnc[nH]1)C(=O)N[C@@H](Cc1ccccc1)C(=O)NCC(N)=O | < 4.00
CC(=O)N[C@@H](Cc1c[nH]c2ccccc12)C(=O)N[C@@H](Cc1ccccc1)C(=O)NCC(N)=O (Ac-Trp-Phe-Gly-NH2) | 7.92

====

TARGET: Mu-type opioid receptor (Homo sapiens, UniProt P35372)
Sequence (P35372 whole entry): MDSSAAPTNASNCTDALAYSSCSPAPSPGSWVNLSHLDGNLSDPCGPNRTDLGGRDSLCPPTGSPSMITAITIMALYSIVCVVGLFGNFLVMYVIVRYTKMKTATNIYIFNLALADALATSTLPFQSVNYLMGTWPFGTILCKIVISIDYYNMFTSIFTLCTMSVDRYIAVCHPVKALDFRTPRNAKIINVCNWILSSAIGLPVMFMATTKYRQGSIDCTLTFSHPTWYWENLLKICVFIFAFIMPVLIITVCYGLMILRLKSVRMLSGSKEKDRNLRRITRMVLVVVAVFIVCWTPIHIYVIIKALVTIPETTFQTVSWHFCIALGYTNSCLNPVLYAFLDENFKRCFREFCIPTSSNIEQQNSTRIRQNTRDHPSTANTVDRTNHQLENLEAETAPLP
TEST SUMMARY: Partial agonist activity at human MOR expressed in HEK293 cells assessed as inhibition of forskolin-induced cAMP accumulation after 15 mins by cAMP EIA
Format: functional, cell-based
pIC50: −log10 of the molar value. Where a SMILES comes first, the peptide text is derived from it. [ ]: non-standard residue; d: D form.
QUANTITY MEASURED: pIC50

COMPOUND | OBSERVED
CC(=O)N[C@H](Cc1c[nH]c2ccccc12)C(=O)N[C@@H](Cc1ccccc1)C(=O)NCC(N)=O (Ac-[dW]-Phe-Gly-NH2) | 6.70

====

# Lookup of reported pIC50 keyed by entry
TARGET: Mu-type opioid receptor (Homo sapiens)
Type: functional, cell-based, HEK293
pIC50: −log10 of the molar value. Where a SMILES comes first, the peptide text is derived from it. [ ]: non-standard residue; d: D form.
QUANTITY MEASURED: pIC50

COMPOUND | VALUE MODIFIER | OBSERVED
CC(=O)N[C@H](Cc1c[nH]c2ccccc12)C(=O)N[C@@H](Cc1ccccc1)C(N)=O (Ac-[dW]-Phe-NH2) | < | 4.00
NC(=O)[C@H]1CC(=O)NCCC(=O)N[C@H](Cc2c[nH]c3ccccc23)C(=O)N[C@@H](Cc2ccccc2)C(=O)N1 | = | 7.43

====

TARGET: Kappa-type opioid receptor (Homo sapiens)
Sequence (P41145 whole entry): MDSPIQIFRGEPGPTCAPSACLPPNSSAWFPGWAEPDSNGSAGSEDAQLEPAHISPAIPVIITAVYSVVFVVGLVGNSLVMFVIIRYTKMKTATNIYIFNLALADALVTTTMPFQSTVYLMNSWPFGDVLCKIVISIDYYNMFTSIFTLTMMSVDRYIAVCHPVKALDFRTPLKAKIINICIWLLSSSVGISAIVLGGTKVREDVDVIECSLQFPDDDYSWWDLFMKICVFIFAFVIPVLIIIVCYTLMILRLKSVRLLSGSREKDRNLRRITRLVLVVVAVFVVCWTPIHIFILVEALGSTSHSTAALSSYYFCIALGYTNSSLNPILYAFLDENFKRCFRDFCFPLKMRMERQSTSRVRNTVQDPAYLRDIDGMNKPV
TEST SUMMARY: Displacement of [3H]U69,593 from human KOR expressed in HEK293 cells after 90 mins by liquid scintillation counting
Format: cell-based
Where a SMILES comes first, the peptide text is derived from it. [ ]: non-standard residue; d: D form.

COMPOUND | TARGET | Ki
CC(=O)N[C@H](Cc1c[nH]c2ccccc12)C(=O)N[C@@H](Cc1ccccc1)C(=O)NCC(N)=O (Ac-[dW]-Phe-Gly-NH2) | Kappa-type opioid receptor (Homo sapiens) | > 100 µM
CC(=O)N[C@@H](Cc1c[nH]c2ccccc12)C(=O)N[C@@H](Cc1ccccc1)C(=O)NCC(N)=O (Ac-Trp-Phe-Gly-NH2) | Kappa-type opioid receptor (Homo sapiens) | 33 µM
CC(=O)N[C@H](CCCCN)C(=O)N[C@@H](Cc1ccccc1)C(N)=O | Kappa-type opioid receptor (Homo sapiens) | > 100 µM
CC(=O)N[C@H](CCCCN)C(=O)N[C@@H](Cc1ccccc1)C(=O)NCC(N)=O | Kappa-type opioid receptor (Homo sapiens) | > 100 µM

====

TARGET: Mu-type opioid receptor (Homo sapiens)
pKi: −log10 of the molar value. Where a SMILES comes first, the peptide text is derived from it. [ ]: non-standard residue; d: D form.

COMPOUND | VALUE MODIFIER | pKi
CC(=O)N[C@H](CCCCN)C(=O)N[C@@H](Cc1ccccc1)C(=O)NCC(N)=O | < | 4.00
CC(=O)N[C@H](Cc1c[nH]c2ccccc12)C(=O)N[C@@H](Cc1ccccc1)C(N)=O (Ac-[dW]-Phe-NH2) | = | 7.81
CC(=O)N[C@H](Cc1c[nH]c2ccccc12)C(=O)N[C@@H](Cc1ccccc1)C(=O)NCC(N)=O (Ac-[dW]-Phe-Gly-NH2) | = | 8.25
CC(=O)N[C@@H](Cc1c[nH]c2ccccc12)C(=O)N[C@@H](Cc1ccccc1)C(=O)NCC(N)=O (Ac-Trp-Phe-Gly-NH2) | = | 4.13
NC(=O)[C@H]1CC(=O)NCCC(=O)N[C@H](Cc2c[nH]c3ccccc23)C(=O)N[C@@H](Cc2ccccc2)C(=O)N1 | = | 8.23
CC(=O)N[C@H](CCCNC(=N)N)C(=O)N[C@@H](Cc1ccccc1)C(N)=O | < | 4.00
